biological target: UniProtKB Q99623; test: Induction of PHB2-mediated melanogenesis in human HBL cells assessed as pigmentation at 1 uM after 10 days relative to control; type: cell-based
Sequence (Q99623 whole entry): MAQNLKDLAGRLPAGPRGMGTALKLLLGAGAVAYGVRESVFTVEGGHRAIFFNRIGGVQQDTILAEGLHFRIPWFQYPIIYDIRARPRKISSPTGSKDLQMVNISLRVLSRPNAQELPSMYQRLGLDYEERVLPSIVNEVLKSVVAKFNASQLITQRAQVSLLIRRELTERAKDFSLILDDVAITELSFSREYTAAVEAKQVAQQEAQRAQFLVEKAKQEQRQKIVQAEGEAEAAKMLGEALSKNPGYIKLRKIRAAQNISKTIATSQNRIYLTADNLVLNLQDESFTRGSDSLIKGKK
endpointName: fold change (FC)

# compound, testValue
rows = [
    ("CC(Nc1nc(NCCN(C)C)nc(Oc2c(F)c(F)c(F)c(F)c2F)n1)c1cccc(F)c1 (centres undefined)", 0.77),
    ("CNc1nc(NC(C)c2cccc(F)c2)nc(Oc2c(F)c(F)c(F)c(F)c2F)n1 (centres undefined)", 1.01),
    ("CNc1nc(Oc2c(F)c(F)c(F)c(F)c2F)nc(N(C)[C@@H](C)c2ccccc2)n1", 1.01),
    ("CN(C)CCCNc1nc(Oc2c(F)c(F)c(F)c(F)c2F)nc(N2CCCc3ccccc3C2)n1", 0.96),
    ("COCCNc1nc(NCc2cccc(F)c2)nc(Oc2c(F)c(F)c(F)c(F)c2F)n1", 0.8),
]

I. CC(C)CCNc1nc(NCc2cccc(F)c2)nc(Oc2c(F)c(F)c(F)c(F)c2F)n1
II. Fc1cccc(CNc2nc(NCC3CCCO3)nc(Oc3c(F)c(F)c(F)c(F)c3F)n2)c1 (centres undefined)
Qu. Sorting ascending by fold change (FC), which comes first: I or II ? Indicate which entry you chose by stating its label.
Ans. I
(I: 0.7, II: 1.07)
